Test system: anti-M2 human monoclonal antibody Z3G1
Assay type: binding
measured-property: Signal (peptides that show specific binding to Z3G1)

| substance | recorded-result |
| --- | --- |
| 1586 (SLLLEVETPIRNEWGCRCNDSSD; epitope peptide) [compound 1586] | 2344 |
| 546 (SLLTEVETPIRNRWGCRCNDSSD; epitope peptide) [compound 546] | 2257 |
| 1579 (SLLDEVETPIRNEWGCRCNDSSD; epitope peptide) [compound 1579] | 2276 |
| 1511 (CLTEVETPIRLLTEVETPICETPIRNEWG; epitope peptide; MISC_FEATURE (1)..(1): C is an attachment site for a CLIP; MISC_FEATURE (10)..(10): R is an attachment site for a CLIP; MISC_FEATURE (11)..(11): L is an attachment site for a CLIP; MISC_FEATURE (29)..(29): G is an attachment site for a CLIP) [compound 1511] | 2175 |
| 691 (SLLTEVETPIRNEWGCRMNDSSD; epitope peptide) [compound 691] | 2356 |
| 700 (SLLTEVETSIRNEWGCRCNDSSD; epitope peptide) [compound 700] | 2151 |
| 551 (SLLTEVATPIRNEWGCRCNDSSD; epitope peptide) [compound 551] | 2093 |
| 611 (SLLTEVETRIRNEWGCRCNDSSD; epitope peptide) [compound 611] | 2159 |
| 321 (ALLTEVETPIRNEWGCRCNDSSD; epitope peptide) [compound 321] | 2225 |
| 711 (CSLLTEVGSLCTEV; epitope peptide) [compound 711] | 2409 |
| 1566 (GLLTEVETPIRNEWGCRCNDSSD; epitope peptide) [compound 1566] | 2321 |
| 320 (SLLTEVGSLLTEV; epitope peptide) [compound 320] | 2530 |
| 215 (CSLLTEVETCLTEVETPIRNEWGSRC; epitope peptide) [compound 215] | 2328 |
| 682 (SLLTEVETPIRNEWGSRCNDSSD; epitope peptide) [compound 682] | 2346 |
| 461 (SLLTEVETPLRNEWGCRCNDSSD; epitope peptide) [compound 461] | 2239 |
